target: CYP450 enzyme subtype 2C19 (Homo sapiens)
Sequence (P33261 whole entry): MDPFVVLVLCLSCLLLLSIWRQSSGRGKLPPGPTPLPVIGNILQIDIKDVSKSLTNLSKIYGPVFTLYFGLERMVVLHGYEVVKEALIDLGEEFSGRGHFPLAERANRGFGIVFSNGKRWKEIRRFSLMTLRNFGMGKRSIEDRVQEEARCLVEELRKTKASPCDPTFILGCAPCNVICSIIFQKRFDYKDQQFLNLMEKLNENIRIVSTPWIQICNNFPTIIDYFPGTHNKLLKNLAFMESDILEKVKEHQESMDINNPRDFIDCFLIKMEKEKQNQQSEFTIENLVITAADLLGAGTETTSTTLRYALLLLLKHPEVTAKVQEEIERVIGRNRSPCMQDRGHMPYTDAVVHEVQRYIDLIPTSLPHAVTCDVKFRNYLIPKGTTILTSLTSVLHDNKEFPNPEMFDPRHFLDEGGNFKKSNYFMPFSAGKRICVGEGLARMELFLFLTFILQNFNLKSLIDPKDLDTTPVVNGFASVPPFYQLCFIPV
pIC50: −log10 of the molar value.
Observation type: pIC50

Q. Entry CCCCC1=NC2(CCCC2)C(=O)N1Cc1ccc(-c2ccccc2S(=O)(=O)Nc2noc(C)c2Br)c(COCC)c1 [Example 46] has what pIC50?
A. < 4.00

* * *

target: CYP450 enzyme subtype 2D6 (Homo sapiens, UniProt P10635)
Sequence (P10635 whole entry): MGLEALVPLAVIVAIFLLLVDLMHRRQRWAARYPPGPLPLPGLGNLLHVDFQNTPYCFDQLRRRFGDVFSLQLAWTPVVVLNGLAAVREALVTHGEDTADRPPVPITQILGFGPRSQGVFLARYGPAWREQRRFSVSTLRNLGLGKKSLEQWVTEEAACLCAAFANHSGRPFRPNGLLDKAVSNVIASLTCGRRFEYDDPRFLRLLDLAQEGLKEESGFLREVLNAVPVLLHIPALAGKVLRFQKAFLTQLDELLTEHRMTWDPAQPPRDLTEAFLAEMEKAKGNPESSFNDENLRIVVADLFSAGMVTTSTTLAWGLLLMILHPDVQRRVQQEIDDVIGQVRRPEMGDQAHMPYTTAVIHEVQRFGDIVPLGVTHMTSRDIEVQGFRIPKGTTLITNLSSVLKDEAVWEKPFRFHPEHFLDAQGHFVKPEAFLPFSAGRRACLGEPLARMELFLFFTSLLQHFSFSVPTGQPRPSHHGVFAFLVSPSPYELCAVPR
Observation type: IC50

Q. Which measured IC50 belongs to "CCCCC1=NC2(CCCC2)C(=O)N1Cc1ccc(-c2ccccc2S(=O)(=O)Nc2noc(C)c2Br)c(COCC)c1" , tested on CYP450 enzyme subtype 2D6 (Homo sapiens, UniProt P10635)?
A. > 100 µM

* * *

experiment: Rat pharmacokinetic evaluation test, oral administration; assay type: in vivo; settings: male, SD rats, p.o. 5 mg/kg, plasma, read-out: MRT0-∞
# key: entry, value: MRT inf
State just the number; it will be interpreted in h.

CCCCC1=NC2(CCCC2)C(=O)N1Cc1ccc(-c2ccccc2S(=O)(=O)Nc2noc(C)c2C)c(COCC2CC2)c1: 5.3

Q. Param item = "CCCCC1=NC2(CCCC2)C(=O)N1Cc1ccc(-c2ccccc2S(=O)(=O)Nc2noc(C)c2Br)c(COCC)c1" ; retrieve measured MRT inf.
A. 6.6

Q. I am curious: what MRT inf value has been reported for CCCCC1=NC2(CC3CC3C2)C(=O)N1Cc1ccc(-c2ccccc2S(=O)(=O)Nc2noc(C)c2C)c(COCC)c1 (stereo not drawn) ?
A. 3.8

* * *

Listed compounds paired with reported Cmax
experiment: Rat pharmacokinetic evaluation test, oral administration; type: in vivo; details: male, SD rats, p.o. 5 mg/kg, plasma
Report the figure in ng/mL without appending any unit label.

CCCCC1=NC2(CCCC2)C(=O)N1Cc1ccc(-c2ccccc2S(=O)(=O)Nc2noc(C)c2C)c(COCC2CC2)c1 [Example 14]: 2320
CCCCC1=NC2(CCCC2)C(=O)N1Cc1ccc(-c2ccccc2S(=O)(=O)Nc2noc(C)c2Br)c(COCC)c1 [Example 46]: 2300

Q. Need Cmax of CCCCC1=NC2(CC3CC3C2)C(=O)N1Cc1ccc(-c2ccccc2S(=O)(=O)Nc2noc(C)c2C)c(COCC)c1 (stereo not drawn) [Example 87] , thanks.
A. 2630

* * *

target: ETA receptors (Homo sapiens, UniProt P25101); experiment: Effect on calcium current in cells stably expressing ETA receptors (FLIPR, antagonist mode); conditions: HEK293-ETA cells, Fluo-8 AM, FLIPR Tetra; read-out: IC50 values of compounds on calcium current in cells stably expressing ETA receptors
Sequence (P25101 21-427): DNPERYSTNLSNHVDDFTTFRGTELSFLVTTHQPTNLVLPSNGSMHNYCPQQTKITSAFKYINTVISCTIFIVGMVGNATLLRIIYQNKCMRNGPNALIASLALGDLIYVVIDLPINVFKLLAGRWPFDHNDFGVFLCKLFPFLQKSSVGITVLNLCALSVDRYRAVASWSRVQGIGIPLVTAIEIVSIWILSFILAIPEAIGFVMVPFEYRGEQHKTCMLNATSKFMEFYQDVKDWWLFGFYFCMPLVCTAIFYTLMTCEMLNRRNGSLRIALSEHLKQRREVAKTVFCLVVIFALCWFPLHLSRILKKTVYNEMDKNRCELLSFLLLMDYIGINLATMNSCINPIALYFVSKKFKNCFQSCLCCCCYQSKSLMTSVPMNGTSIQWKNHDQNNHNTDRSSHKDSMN
Reported pIC50 values are given for each entry in this list.
Units for pIC50: none; it is -log10 of a concentration expressed in mol/L.

Here's what some known entries look like.
[2H]C([2H])(OCC)c1cc(CN2C(=O)C3(CCCC3)N=C2CCCC)ccc1-c1ccccc1S(=O)(=O)Nc1noc(C)c1Cl: 7.89
CCCCC1=NC2(CCCCC2)C(=O)N1Cc1ccc(-c2ccccc2S(=O)(=O)Nc2noc(C)c2Cl)c(COCC)c1: 7.73
CCCCC1=NC2(CC3CC3C2)C(=O)N1Cc1ccc(-c2ccccc2S(=O)(=O)Nc2noc(C)c2C)c(COCC)c1 (centres unmarked): 8.09
CCCCC1=NC2(CCCC2)C(=O)N1Cc1ccc(-c2ccccc2S(=O)(=O)Nc2noc(C)c2Cl)c(COCC(F)(F)F)c1: 7.86

// next item, pIC50 requested
Q. Record request: pIC50 value, item CCCCC1=NC2(CC3CC3C2)C(=O)N1Cc1ccc(-c2ccccc2S(=O)(=O)Nc2noc(C)c2Cl)c(COCC)c1 (centres unmarked)
A. 8.14

* * *

test: Liver microsomal metabolism stability test, dog; format: in vitro ADME; settings: dog liver microsomes, 60 min
// reported Remaining rate for each item listed
API: value field is a number in %; no unit string.

[2H]C([2H])(c1ccc(-c2ccccc2S(=O)(=O)Nc2noc(C)c2Cl)c(COCC)c1)N1C(=O)C2(CCCC2)N=C1CCCC: 24.6
CCCCC1=NC2(CCCC2)C(=O)N1Cc1ccc(-c2ccccc2S(=O)(=O)Nc2noc(C)c2Cl)c(COCC)c1: 23.6
[2H]C([2H])(OCC)c1cc(CN2C(=O)C3(CCCC3)N=C2CCCC)ccc1-c1ccccc1S(=O)(=O)Nc1noc(C)c1Cl: 23.9

We next turn to a different compound, shown below.
Q. Quick check: Remaining rate of "CCCCC1=NC2(CCCC2)C(=O)N1Cc1ccc(-c2ccccc2S(=O)(=O)Nc2noc(C)c2Br)c(COCC)c1" ?
A. 15.4

* * *

assay: Liver microsomal metabolism stability test, dog; type: in vitro ADME; settings: dog liver microsomes 0.5 mg/mL, compound 1 μM, NADPH/UDPGA
Observation type: half-life at 1 μM (min)
Express the result in min but write the number alone.

CCCCC1=NC2(CCCC2)C(=O)N1Cc1ccc(-c2ccccc2S(=O)(=O)Nc2noc(C)c2Br)c(COCC)c1 [Example 46]: 22.2

Continue with the molecule presented below.
Q. Consider the molecule shown here: [2H]C([2H])(OCC)c1cc(CN2C(=O)C3(CCCC3)N=C2CCCC)ccc1-c1ccccc1S(=O)(=O)Nc1noc(C)c1Cl [Example 49] What is its recorded half-life at 1 μM?
A. 29.5

* * *

target: UniProtKB P30556; experiment: Effect on calcium current in cells stably expressing AT1 receptors (FLIPR, antagonist mode); conditions: HEK293-AT1 cells, Fluo-8 AM, FLIPR Tetra; read-out: IC50 values of compounds on calcium current in cells stably expressing AT1 receptors
Sequence (P30556 whole entry): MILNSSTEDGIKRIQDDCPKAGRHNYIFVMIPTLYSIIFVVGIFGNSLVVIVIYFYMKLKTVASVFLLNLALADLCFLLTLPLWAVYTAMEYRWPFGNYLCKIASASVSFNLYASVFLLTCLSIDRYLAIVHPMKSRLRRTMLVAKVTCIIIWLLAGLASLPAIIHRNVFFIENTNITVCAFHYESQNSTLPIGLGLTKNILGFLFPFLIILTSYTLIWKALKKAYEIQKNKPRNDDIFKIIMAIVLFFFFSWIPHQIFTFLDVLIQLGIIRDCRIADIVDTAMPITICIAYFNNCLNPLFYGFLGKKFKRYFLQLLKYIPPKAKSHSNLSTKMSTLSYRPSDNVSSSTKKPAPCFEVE
Below, each entry is listed with its recorded pIC50.
// pIC50 is dimensionless: -log10 of concentration (M)

Sample records with pIC50:
CCCCC1=NC2(CCCC2)C(=O)N1Cc1ccc(-c2ccccc2S(=O)(=O)Nc2noc(C)c2C)c(COC2CC2)c1: 8.00
[2H]C([2H])(OCC)c1cc(CN2C(=O)C3(CCCC3)N=C2CCCC)ccc1-c1ccccc1S(=O)(=O)Nc1noc(C)c1Cl: 8.14
CCCCC1=NC2(CCCC2)C(=O)N1Cc1ccc(-c2ccccc2S(=O)(=O)Nc2noc(C)c2Br)c(COCC)c1: 8.41

Q. GET /values?readout=pIC50&item= "CCCCC1=NC2(CCCC2)C(=O)N1Cc1ccc(-c2ccccc2S(=O)(=O)Nc2noc(C)c2Cl)c(COCC(F)(F)F)c1"
A. 8.66

Q. Looking for the measured pIC50 of "CCCCC1=NC2(CCCC2)C(=O)N1Cc1ccc(-c2ccccc2S(=O)(=O)Nc2noc(C)c2Cl)c(COC2CC2)c1" , can you help?
A. 8.07

Q. Report pIC50 for "CCCCC1=NC2(CCCCC2)C(=O)N1Cc1ccc(-c2ccccc2S(=O)(=O)Nc2noc(C)c2Cl)c(COCC)c1" please.
A. 8.06

* * *

Assay: Liver microsomal metabolism stability test, human
Type: in vitro ADME
Conditions: human liver microsomes, 60 min
Procedure: The purpose of this experiment was to detect the stability of the example compounds in liver microsomes of rats, dogs and humans. • Formulation of working solution of compounds: compound stock solution was added to phosphate buffer to a final concentration of 20 μM. Dilution was performed with 100 mM phosphate buffer to a final concentration of 0.625 mg/mL. […]
Observation type: Remaining rate
Show the value, then the unit it is measured in.

As a guide, the following entries are already answered.
CCCCC1=NC2(CCCC2)C(=O)N1Cc1ccc(-c2ccccc2S(=O)(=O)Nc2noc(C)c2Br)c(COCC)c1: 23.8%
CCCCC1=NC2(CCCC2)C(=O)N1Cc1ccc(-c2ccccc2S(=O)(=O)Nc2noc(C)c2Cl)c(COCC)c1: 32.0%
[2H]C([2H])(c1ccc(-c2ccccc2S(=O)(=O)Nc2noc(C)c2Cl)c(COCC)c1)N1C(=O)C2(CCCC2)N=C1CCCC: 33.0%

Would you kindly look at the next entry?
Q. Fill blank: measured Remaining rate of the molecule "[2H]C([2H])(OCC)c1cc(CN2C(=O)C3(CCCC3)N=C2CCCC)ccc1-c1ccccc1S(=O)(=O)Nc1noc(C)c1Cl" is ____.
A. 30.7%

* * *

experiment: Liver microsomal metabolism stability test, human; format: in vitro ADME; conditions: human liver microsomes 0.5 mg/mL, compound 1 μM, NADPH/UDPGA
# Lookup of reported half-life at 1 μM keyed by entry
Give the number; min is assumed, so skip it.

CCCCC1=NC2(CCCC2)C(=O)N1Cc1ccc(-c2ccccc2S(=O)(=O)Nc2noc(C)c2Br)c(COCC)c1: 28.9

Q. Please report the recorded half-life at 1 μM for "[2H]C([2H])(OCC)c1cc(CN2C(=O)C3(CCCC3)N=C2CCCC)ccc1-c1ccccc1S(=O)(=O)Nc1noc(C)c1Cl" .
A. 26.2

* * *

assay: Rat pharmacokinetic evaluation test, oral administration; format: in vivo; settings: male, SD rats, p.o. 5 mg/kg, plasma
The entries below come with measured AUC(0-inf) values attached.
Quick note: number first, unit second.

CCCCC1=NC2(CC3CC3C2)C(=O)N1Cc1ccc(-c2ccccc2S(=O)(=O)Nc2noc(C)c2C)c(COCC)c1 (stereo not drawn): 9760 ng·h/mL
CCCCC1=NC2(CCCC2)C(=O)N1Cc1ccc(-c2ccccc2S(=O)(=O)Nc2noc(C)c2C)c(COCC2CC2)c1: 11300 ng·h/mL

# next compound below
Q. What value of AUC(0-inf) has been recorded for this entry: "CCCCC1=NC2(CCCC2)C(=O)N1Cc1ccc(-c2ccccc2S(=O)(=O)Nc2noc(C)c2Br)c(COCC)c1"
A. 13800 ng·h/mL
